GI50: recorded values
- System: TK-10 renal
- MEASUREMENT_NOTES: NCI tumour cell line growth inhibition, 48 h

# annotated cases, reported GI50 shown
compound=CCOc1ccc2nc(-c3cccc(OCC(=O)NC(C)C)c3)nc(Nc3ccc(-c4cn[nH]c4)cc3)c2c1 target_or_system="TK-10 renal" measured_metric=GI50 endpoint_value="1.89 µM"
compound=CCCOC(=O)N[C@H]1CCc2cc(OC)c(OC)c(OC)c2-c2ccc(SC)c(=O)cc21 target_or_system="TK-10 renal" measured_metric=GI50 endpoint_value="3.61 µM"
compound=CSc1n(Cc2ccc3ccccc3c2)c(C)c[n+]1Cc1ccc2ccccc2c1 target_or_system="TK-10 renal" measured_metric=GI50 endpoint_value="1.41 µM"
compound="Oc1ccc2ccccc2c1C1NN=C(c2ccccc2)S1 (stereo not drawn)" target_or_system="TK-10 renal" measured_metric=GI50 endpoint_value="0.559 µM"
compound=O=C(O)c1ccc2c3c(ncnc13)-c1ccccc1C2=O target_or_system="TK-10 renal" measured_metric=GI50 endpoint_value="21.9 µM"
compound=C[n+]1c2ccccc2c(Nc2ccc(NS(=O)(=O)CCCCN=C(N)N)cc2)c2ccc(N)cc21 target_or_system="TK-10 renal" measured_metric=GI50 endpoint_value="6.47 µM"
compound=O=C(/C=C/c1cccc([N+](=O)[O-])c1)c1ccc(O)c(CN2CCN(c3cc4c(cc3F)c(=O)c(C(=O)O)cn4C3CC3)CC2)c1 target_or_system="TK-10 renal" measured_metric=GI50 endpoint_value="2.1 µM"

Continue with the next compound.
Give its GI50 value. Item: C[C@]1(C(=O)O)N[C@H](C(=O)O)CS1
> 1000 µM
